- System: 843126-344-R-J1-PDC complex spheroid viability
- Run Description: Anticancer human tumor 843126-344-R-J1-PDC patient-derived melanoma cell line growth inhibition [POLQ]; active means viability on the fitted dose curve at most 10% of control; inactive means the rest
- Test Conditions: second compound 3.16 µM; first compound 3.16 µM
// allowed return values: 1 (yes) (active), 0 (no) (inactive)

Known results for compounds:
Compound: O=C(Nc1ccc(O)c(NS(=O)(=O)c2ccc(F)cc2)c1)c1ccc(-c2ccccc2)cc1 + Cc1cccc(N(C)C(=O)C2C(O)CCN2c2nc(C)cc(C(F)(F)F)c2C#N)c1
Class: 0 (no)

Compound: COc1cc2cc(C(=O)CCC(=O)O)sc2cc1OC + Nc1ccc(C#CCN(C(=O)Cc2ncc(C(F)(F)F)cc2C(F)(F)F)c2ccc(F)cc2)nn1
Class: 0 (no)

Identify the outcome logged in this assay for the compound shown: COc1cc(C2c3cc4c(cc3C(OC3OC5COC(C)OC5C(O)C3O)C3COC(=O)C23)OCO4)cc(OC)c1O (stereo not given) + Cc1cccc(N(C)C(=O)C2C(O)CCN2c2nc(C)cc(C(F)(F)F)c2C#N)c1
0 (no)

Identify the outcome logged in this assay for the compound shown: C=CC(=O)N1CCN(c2nc(=O)n(-c3c(C)ccnc3C(C)C)c3nc(-c4c(O)cccc4F)c(F)cc23)C(C)C1 (stereo not given) + Cc1cccc(N(C)C(=O)C2C(O)CCN2c2nc(C)cc(C(F)(F)F)c2C#N)c1
0 (no)

Identify the outcome logged in this assay for the compound shown: C=CC(=O)N1CCN(c2nc(=O)n(-c3c(C)ccnc3C(C)C)c3nc(-c4c(O)cccc4F)c(F)cc23)C(C)C1 (stereo not given) + COC1C(OC(N)=O)C(O)C(Oc2ccc3c(O)c(NC(=O)c4ccc(O)c(CC=C(C)C)c4)c(=O)oc3c2C)OC1(C)C
0 (no)

Identify the outcome logged in this assay for the compound shown: COc1cccc2c1C(=O)c1c(O)c3c(c(O)c1C2=O)CC(O)(C(=O)CO)CC3OC1CC(N)C(O)C(C)O1 (stereo not given) + COC1C(OC(N)=O)C(O)C(Oc2ccc3c(O)c(NC(=O)c4ccc(O)c(CC=C(C)C)c4)c(=O)oc3c2C)OC1(C)C
1 (yes)

Identify the outcome logged in this assay for the compound shown: CC(C)n1c(=O)n(C)c2cnc3cc(F)c(-c4ccc(OCCCN5CCCCC5)nc4)cc3c21 + Cc1cccc(N(C)C(=O)C2C(O)CCN2c2nc(C)cc(C(F)(F)F)c2C#N)c1
0 (no)

Identify the outcome logged in this assay for the compound shown: COc1ccc([C@@H](O)c2cc(-c3ncnc4cc(N5CCOCC5)ccc34)c(F)cc2Cl)nn1 + Cc1cccc(N(C)C(=O)C2C(O)CCN2c2nc(C)cc(C(F)(F)F)c2C#N)c1
0 (no)

Identify the outcome logged in this assay for the compound shown: CC1COCCN1c1cc(-c2ccnn2C)c2ccnc(-c3ccn[nH]3)c2n1 (stereo not given) + COC1C(OC(N)=O)C(O)C(Oc2ccc3c(O)c(NC(=O)c4ccc(O)c(CC=C(C)C)c4)c(=O)oc3c2C)OC1(C)C
0 (no)

Identify the outcome logged in this assay for the compound shown: COc1cc(C2c3cc4c(cc3C(OC3OC5COC(C)OC5C(O)C3O)C3COC(=O)C23)OCO4)cc(OC)c1O (stereo not given) + Nc1ccc(C#CCN(C(=O)Cc2ncc(C(F)(F)F)cc2C(F)(F)F)c2ccc(F)cc2)nn1
0 (no)

----------
- Test system: 843126-344-R-J1-PDC complex spheroid viability
- Run Description: Anticancer human tumor 843126-344-R-J1-PDC cell line growth inhibition [POLQ];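 on viability, T/C: spheroids exposed to drugs for seven days before readout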
- Test Conditions: second compound 0.0316 µM; first compound 0.1 µM; stronger effect = lower value
Reported viability, T/C is given for each of the following molecules.

Molecule: C=CC(=O)N1CCN(c2nc(=O)n(-c3c(C)ccnc3C(C)C)c3nc(-c4c(O)cccc4F)c(F)cc23)C(C)C1 (stereo not given) + COC1C(OC(N)=O)C(O)C(Oc2ccc3c(O)c(NC(=O)c4ccc(O)c(CC=C(C)C)c4)c(=O)oc3c2C)OC1(C)C
Result: 100%
--
Molecule: COc1cccc2c1C(=O)c1c(O)c3c(c(O)c1C2=O)CC(O)(C(=O)CO)CC3OC1CC(N)C(O)C(C)O1 (stereo not given) + Cc1cccc(N(C)C(=O)C2C(O)CCN2c2nc(C)cc(C(F)(F)F)c2C#N)c1
Result: 62.1%
--
Molecule: CC[C@@]1(O)C(=O)OCc2c1cc1n(c2=O)Cc2cc3c(CN(C)C)c(O)ccc3nc2-1 + Nc1ccc(C#CCN(C(=O)Cc2ncc(C(F)(F)F)cc2C(F)(F)F)c2ccc(F)cc2)nn1
Result: 50.2%

For the molecule CCCS(=O)(=O)Nc1ccc(F)c(C(=O)c2c[nH]c3ncc(-c4ccc(Cl)cc4)cc23)c1F + Nc1ccc(C#CCN(C(=O)Cc2ncc(C(F)(F)F)cc2C(F)(F)F)c2ccc(F)cc2)nn1 , what viability, T/C is on record?
92.7%

For the molecule CC(C)n1c(=O)n(C)c2cnc3cc(F)c(-c4ccc(OCCCN5CCCCC5)nc4)cc3c21 + COC1C(OC(N)=O)C(O)C(Oc2ccc3c(O)c(NC(=O)c4ccc(O)c(CC=C(C)C)c4)c(=O)oc3c2C)OC1(C)C , what viability, T/C is on record?
85.9%

For the molecule COc1cc2cc(C(=O)CCC(=O)O)sc2cc1OC + COC1C(OC(N)=O)C(O)C(Oc2ccc3c(O)c(NC(=O)c4ccc(O)c(CC=C(C)C)c4)c(=O)oc3c2C)OC1(C)C , what viability, T/C is on record?
82.8%

----------
Reported IC50 is given for each of the following compounds.
- Tested on: 843126-344-R-J1-PDC complex spheroid viability
- Run Description: Anticancer human tumor 843126-344-R-J1-PDC cell line growth inhibition [POLQ]
- Test Conditions: curve of first compound; second compound 10 µM

Solved cases (9 shown):
Compound: C#Cc1c(F)ccc2cc(O)cc(-c3ncc4c(N5CC6CCC(C5)N6)nc(OCC56CCCN5CC(F)C6)nc4c3F)c12 (stereo not given) + COC1C(OC(N)=O)C(O)C(Oc2ccc3c(O)c(NC(=O)c4ccc(O)c(CC=C(C)C)c4)c(=O)oc3c2C)OC1(C)C
IC50: > 10 µM
--
Compound: CC(=O)O[C@H]1C(=O)[C@@]2(C)[C@H]([C@H](OC(=O)c3ccccc3)[C@]3(O)C[C@H](OC(=O)[C@H](O)[C@@H](NC(=O)c4ccccc4)c4ccccc4)C(C)=C1C3(C)C)[C@]1(OC(C)=O)CO[C@@H]1C[C@@H]2O + Nc1ccc(C#CCN(C(=O)Cc2ncc(C(F)(F)F)cc2C(F)(F)F)c2ccc(F)cc2)nn1
IC50: > 3 µM
--
Compound: Nc1ccn(C2OC(CO)C(O)C2(F)F)c(=O)n1 (stereo not given) + COC1C(OC(N)=O)C(O)C(Oc2ccc3c(O)c(NC(=O)c4ccc(O)c(CC=C(C)C)c4)c(=O)oc3c2C)OC1(C)C
IC50: < 0.0316 µM
--
Compound: O=c1[nH]cc(F)c(=O)[nH]1 + Cc1cccc(N(C)C(=O)C2C(O)CCN2c2nc(C)cc(C(F)(F)F)c2C#N)c1
IC50: > 10 µM
--
Compound: CC(=O)O[C@H]1C(=O)[C@@]2(C)[C@H]([C@H](OC(=O)c3ccccc3)[C@]3(O)C[C@H](OC(=O)[C@H](O)[C@@H](NC(=O)c4ccccc4)c4ccccc4)C(C)=C1C3(C)C)[C@]1(OC(C)=O)CO[C@@H]1C[C@@H]2O + COC1C(OC(N)=O)C(O)C(Oc2ccc3c(O)c(NC(=O)c4ccc(O)c(CC=C(C)C)c4)c(=O)oc3c2C)OC1(C)C
IC50: > 3 µM
--
Compound: COc1ccc([C@@H](O)c2cc(-c3ncnc4cc(N5CCOCC5)ccc34)c(F)cc2Cl)nn1 + Cc1cccc(N(C)C(=O)C2C(O)CCN2c2nc(C)cc(C(F)(F)F)c2C#N)c1
IC50: > 10 µM
--
Compound: COc1cc2cc(C(=O)CCC(=O)O)sc2cc1OC + Nc1ccc(C#CCN(C(=O)Cc2ncc(C(F)(F)F)cc2C(F)(F)F)c2ccc(F)cc2)nn1
IC50: > 10 µM
--
Compound: CC[C@@]1(O)C(=O)OCc2c1cc1n(c2=O)Cc2cc3c(CN(C)C)c(O)ccc3nc2-1 + Nc1ccc(C#CCN(C(=O)Cc2ncc(C(F)(F)F)cc2C(F)(F)F)c2ccc(F)cc2)nn1
IC50: > 0.1 µM
--
Compound: CC(C)n1c(=O)n(C)c2cnc3cc(F)c(-c4ccc(OCCCN5CCCCC5)nc4)cc3c21 + Nc1ccc(C#CCN(C(=O)Cc2ncc(C(F)(F)F)cc2C(F)(F)F)c2ccc(F)cc2)nn1
IC50: > 10 µM

Then there is this compound:
Please tell me: IC50 of CC1COCCN1c1cc(C2(S(C)(=N)=O)CC2)nc(-c2ccnc3[nH]ccc23)n1 (stereo not given) + Cc1cccc(N(C)C(=O)C2C(O)CCN2c2nc(C)cc(C(F)(F)F)c2C#N)c1 , system 843126-344-R-J1-PDC complex spheroid viability?
> 10 µM
